From: patent US9102591B2

target: P2X7 receptor (Homo sapiens (Human), UniProt Q99572); assay: P2X7 FLIPR assay (BzATP-stimulated calcium fluorescence, antagonist IC50); format: cell-based; details: listed as (+)N-[3-cyclopropyl-2-[6-(trifluoromethyl)-3-pyridyl]propyl]-2-methoxy-benzamide
Sequence (Q99572 whole entry): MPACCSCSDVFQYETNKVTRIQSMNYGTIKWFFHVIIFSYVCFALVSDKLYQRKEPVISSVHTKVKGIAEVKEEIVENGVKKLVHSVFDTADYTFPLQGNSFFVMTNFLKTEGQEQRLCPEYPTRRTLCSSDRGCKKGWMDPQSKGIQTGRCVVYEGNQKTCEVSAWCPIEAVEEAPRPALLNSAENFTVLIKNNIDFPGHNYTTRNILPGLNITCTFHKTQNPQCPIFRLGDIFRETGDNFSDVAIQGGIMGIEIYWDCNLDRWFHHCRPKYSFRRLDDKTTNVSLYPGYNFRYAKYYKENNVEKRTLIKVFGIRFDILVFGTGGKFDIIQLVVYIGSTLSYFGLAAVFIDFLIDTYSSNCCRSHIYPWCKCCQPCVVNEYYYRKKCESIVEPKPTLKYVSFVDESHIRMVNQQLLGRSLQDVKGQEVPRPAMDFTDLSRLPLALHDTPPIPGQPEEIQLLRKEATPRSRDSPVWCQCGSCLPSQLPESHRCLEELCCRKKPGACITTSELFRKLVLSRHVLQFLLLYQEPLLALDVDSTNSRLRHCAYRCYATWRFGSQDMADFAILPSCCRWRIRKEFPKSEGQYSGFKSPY
assay_metric: IC50 (nM)
Reply numerically in nM, unit not repeated.

Quote IC50 with test system P2X7 receptor (Homo sapiens (Human), UniProt Q99572) for COc1ccccc1C(=O)NCC(CC1CC1)c1ccc(C(F)(F)F)nc1 (single isomer, unassigned) [Example 4p] 990

----------
Target: P2X7 receptor (Homo sapiens (Human), UniProt Q99572)
Assay: P2X7 FLIPR assay (BzATP-stimulated calcium fluorescence, antagonist IC50)
Format: cell-based
Settings: listed as (−)N-[3-cyclopropyl-2-[6-(trifluoromethyl)-3-pyridyl]propyl]-2-methoxy-benzamide
Protocol: This example illustrates representative assays for use in evaluating the test compounds for antagonist activity. Compounds of the present invention were tested in vitro for their ability to act as antagonists to the P2X7receptor. […] Cells were plated to cell density of approximately 15,000 cells/well in 384-well assay plates (50 μl/well) with 1.5% low serum media (DMEM, 1.5% FBS, 1% L-glut (2 mM), 10 mM HUES, 1% P/S). Cells were plated 24 hours prior to assay. […]
assay_metric: IC50
Enter the number, and then the unit.

Check the records and state IC50 for COc1ccccc1C(=O)NCC(CC1CC1)c1ccc(C(F)(F)F)nc1 (single isomer, unassigned) 53 nM
